- System: NCI-H226 lung
- Test details: NCI-60 one-dose screen, 48 h
- Condition: 10 µM unless noted
The panel holds about 83,000 compounds, 20% with a hit somewhere; the sample as a whole holds those more often. Calls of active or inactive are those of the source. Rule for the calls: active = growth percent below 10; inactive = the rest.
Give one outcome, nothing more. List: true (1) = active, false (0) = inactive

[Q] Per the assay record, what outcome was assigned to `Cc1ccccc1/C=C/C(=O)c1cccc(OCCCCOc2cccc(C(=O)/C=C/c3ccccc3C)c2)c1` ?
[A] false (0)

[Q] # outcome recorded in this test, key = `CCCCCC(/C=N\NC(=S)N/N=C/C(=C/c1ccccc1)CCCCC)=C\c1ccccc1`
[A] false (0)

[Q] # outcome recorded in this test, key = `O=c1c2cnn(-c3ccccc3)c2n2c(CN3CCOCC3)nnc2n1-c1ccccc1`
[A] false (0)

[Q] Please share the test call associated with `CSc1nnc(-c2cc3c([nH]c4ccccc43)c(-c3cccc(O)c3)n2)n1-c1ccccc1` .
[A] false (0)

[Q] Please let me know the test result on file for `c1cc2c(ccc3[nH]c(-c4ccc5[nH]ncc5c4)c4c(c32)CCCC4)n1` .
[A] false (0)

[Q] Entry `COC(=O)[C@]1(C)CCC[C@]2(C)[C@H]3C[C@H]4C(C(C)C)=C[C@]3(CC[C@H]21)[C@@H]1C(=O)CC[C@H](OCCC#N)[C@@H]14` : call = ?
[A] false (0)

The reported measurements were obtained from PubChem BioAssay (NCI).
